Every entry's value here was drawn from the RNAGym collection of RNA variant scans (doi:10.7554/elife.80360).

B1: HDV Ribozyme (parent)
chain: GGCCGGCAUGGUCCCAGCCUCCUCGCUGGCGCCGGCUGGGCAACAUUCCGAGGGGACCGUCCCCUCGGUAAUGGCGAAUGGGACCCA

# Variants of: B1
# test method notes: self-cleavage, relative activity (ratio to wild type); higher = more cleavage; co-transcriptional
assay metric: self-cleavage
Just the number, please, no unit after it.

Exercise: Any idea what self-cleavage was measured for G35A G68U ?
Key: 0.584

Exercise: G82A A83U ?
Key: 0.376

Exercise: Then this variant: C33G U60G
Key: 0.217

Exercise: Another variant: A16U C75U
Key: 0.189

Exercise: Same thing, different variant: C62G G67C
Key: 0.147

Exercise: Okay, and A78G U79G ?
Key: 0.268

Exercise: Record: G52C G73U
Key: 0.415

Exercise: Would you kindly repeat that for C30G C84A ?
Key: 0

Exercise: Here is the next variant: A8U C36A
Key: 0.0811

Exercise: And the next one, C18U G50A ?
Key: 0.852

Exercise: Same question, C32A U69G this time
Key: 0.271

Exercise: Same question, G29U G50C this time
Key: 0.153

Exercise: Same thing, different variant: C44A C49A
Key: 0.554

Exercise: Quick one: C15A G40A
Key: 0.77

Exercise: Then C7G C75A ?
Key: 0

Exercise: Then U20C G74A ?
Key: 0.125

Exercise: Try this variant too: C58U U79A
Key: 1.07

Exercise: For A16U C66G then?
Key: 1.26

Exercise: Note, next up: C62U G81C
Key: 0.215

Exercise: Okay, and A70G G82A ?
Key: 0.394

Exercise: Follow-up entry: G25C C63A
Key: 0.0755

Exercise: And then G59C C63G , what is it?
Key: 0.909
